- CONDITION INFO: in acetone, 303.15 K
MEASURED PARAMETER: solubility (mole fraction)

Q: Name the reported solubility (mole fraction) value associated with the compound CC(C)c1ncc[nH]1
Result: 0.14

----------
- CONDITION INFO: in isopropanol, 303.15 K
MEASURED PARAMETER: solubility (mole fraction)
// return just the number, without any unit appended

Q: Using the record for CC(C)c1ncc[nH]1 , report its solubility (mole fraction).
Result: 0.11

----------
- CONDITION INFO: in n-propanol, 295.65 K
MEASURED PARAMETER: solubility (mole fraction)
Answer with a number only.

Q: Which solubility (mole fraction) value is on record for CC(C)c1ncc[nH]1 ?
Result: 0.133

----------
- CONDITION INFO: in ethyl acetate, 295.65 K
MEASURED PARAMETER: solubility (mole fraction)
Lab note: record just the number, no unit beside it.

Q: Look up solubility (mole fraction): CC(C)c1ncc[nH]1
Result: 0.0778

----------
- CONDITION INFO: in n-propanol, 293.15 K
MEASURED PARAMETER: solubility (mole fraction)
No unit in the answer, only the number.

Q: Item CC(C)c1ncc[nH]1 has what recorded solubility (mole fraction)?
Result: 0.126

----------
- CONDITION INFO: in ethyl acetate, 278.15 K
MEASURED PARAMETER: solubility (mole fraction)
The reply should be a number, written without any unit.

Q: Form field: reported solubility (mole fraction) of CC(C)c1ncc[nH]1
Result: 0.0519

----------
- CONDITION INFO: in ethyl acetate, 303.15 K
MEASURED PARAMETER: solubility (mole fraction)

Q: Request the reported solubility (mole fraction) associated with CC(C)c1ncc[nH]1
Result: 0.0939

----------
- CONDITION INFO: in 2-butanone, 305.65 K
MEASURED PARAMETER: solubility (mole fraction)
Lab note: record the figure alone, no unit after it.

Q: Value lookup for solubility (mole fraction); key = CC(C)c1ncc[nH]1
Result: 0.185

----------
- CONDITION INFO: in n-propanol, 278.15 K
MEASURED PARAMETER: solubility (mole fraction)
// no unit, no text: just the number

Q: Which solubility (mole fraction) reading was recorded for the compound CC(C)c1ncc[nH]1 ?
Result: 0.0999

----------
- CONDITION INFO: in isopropanol, 305.65 K
MEASURED PARAMETER: solubility (mole fraction)
Returns: the value as a bare number; no unit string appended.

Q: Requested field: solubility (mole fraction). Item: CC(C)c1ncc[nH]1
Result: 0.115

----------
- CONDITION INFO: in acetonitrile, 308.15 K
MEASURED PARAMETER: solubility (mole fraction)

Q: Fill in the blank: the reported solubility (mole fraction) of CC(C)c1ncc[nH]1 is ____.
Result: 0.0509

----------
- CONDITION INFO: in methanol, 290.65 K
MEASURED PARAMETER: solubility (mole fraction)

Q: For CC(C)c1ncc[nH]1 , what is its reported solubility (mole fraction)?
Result: 0.274

----------
- CONDITION INFO: in isopropanol, 293.15 K
MEASURED PARAMETER: solubility (mole fraction)
Number, no unit, nothing else.

Q: Consider the compound shown here: CC(C)c1ncc[nH]1 What is its recorded solubility (mole fraction)?
Result: 0.0927

----------
- CONDITION INFO: in 2-butanone, 293.15 K
MEASURED PARAMETER: solubility (mole fraction)
// no unit string in output, number only

Q: Requested read-out: solubility (mole fraction). Entry: CC(C)c1ncc[nH]1
Result: 0.145

----------
- CONDITION INFO: in n-propanol, 300.65 K
MEASURED PARAMETER: solubility (mole fraction)
Just the number, please, no unit attached.

Q: Tell me the measured solubility (mole fraction) of CC(C)c1ncc[nH]1 , please.
Result: 0.146

----------
- CONDITION INFO: in ethanol, 310.65 K
MEASURED PARAMETER: solubility (mole fraction)
Please respond with just the number, no unit label.

Q: Sample CC(C)c1ncc[nH]1 — what was its solubility (mole fraction)?
Result: 0.304

----------
- CONDITION INFO: in methanol, 313.15 K
MEASURED PARAMETER: solubility (mole fraction)
Provide a numeric answer; units are not to be included.

Q: Tell me the measured solubility (mole fraction) of CC(C)c1ncc[nH]1 , please.
Result: 0.39

----------
- CONDITION INFO: in acetonitrile, 295.65 K
MEASURED PARAMETER: solubility (mole fraction)
Respond numerically, and do not add a unit to the figure.

Q: Fill blank: measured solubility (mole fraction) of the compound CC(C)c1ncc[nH]1 is ____.
Result: 0.0379

----------
- CONDITION INFO: in toluene, 283.15 K
MEASURED PARAMETER: solubility (mole fraction)
No unit in the answer, please; the number alone is enough.

Q: What value of measured solubility (mole fraction) is listed for CC(C)c1ncc[nH]1 ?
Result: 0.0237

----------
- CONDITION INFO: in acetone, 293.15 K
MEASURED PARAMETER: solubility (mole fraction)
Respond numerically, and do not add a unit to the figure.

Q: Which measured solubility (mole fraction) value corresponds to CC(C)c1ncc[nH]1 ?
Result: 0.116

----------
- CONDITION INFO: in ethyl acetate, 300.65 K
MEASURED PARAMETER: solubility (mole fraction)
Give a plain numeric answer without units written out.

Q: Param item = CC(C)c1ncc[nH]1 ; retrieve measured solubility (mole fraction).
Result: 0.0883

----------
- CONDITION INFO: in ethanol, 308.15 K
MEASURED PARAMETER: solubility (mole fraction)
Form rule: numeric answer, no unit written next to it.

Q: Could you tell me which solubility (mole fraction) is on file for CC(C)c1ncc[nH]1 ?
Result: 0.294

----------
- CONDITION INFO: in acetonitrile, 298.15 K
MEASURED PARAMETER: solubility (mole fraction)

Q: Would you mind telling me what solubility (mole fraction) value was observed for CC(C)c1ncc[nH]1 ?
Result: 0.0401

----------
- CONDITION INFO: in toluene, 290.65 K
MEASURED PARAMETER: solubility (mole fraction)
Give a plain numeric answer without units written out.

Q: Returns the measured solubility (mole fraction) for the input compound. Input: CC(C)c1ncc[nH]1
Result: 0.0272

----------
- CONDITION INFO: in 2-butanone, 298.15 K
MEASURED PARAMETER: solubility (mole fraction)
Field format: numeric only.

Q: So what does the record say about solubility (mole fraction) for CC(C)c1ncc[nH]1 ?
Result: 0.159

----------
- CONDITION INFO: in isopropanol, 290.65 K
MEASURED PARAMETER: solubility (mole fraction)
Could you respond with only the numeric value?

Q: Request the reported solubility (mole fraction) associated with CC(C)c1ncc[nH]1
Result: 0.0883

----------
- CONDITION INFO: in ethanol, 288.15 K
MEASURED PARAMETER: solubility (mole fraction)
Lab note: jot the number down without any unit.

Q: If you can, please state the reported solubility (mole fraction) value of CC(C)c1ncc[nH]1 .
Result: 0.216

----------
- CONDITION INFO: in n-propanol, 298.15 K
MEASURED PARAMETER: solubility (mole fraction)
// return just the number, without any unit appended

Q: GET /values?readout=solubility (mole fraction)&item= CC(C)c1ncc[nH]1
Result: 0.139

----------
- CONDITION INFO: in toluene, 278.15 K
MEASURED PARAMETER: solubility (mole fraction)
Give only the figure.

Q: // solubility (mole fraction) lookup, key: CC(C)c1ncc[nH]1
Result: 0.0215

----------
- CONDITION INFO: in toluene, 293.15 K
MEASURED PARAMETER: solubility (mole fraction)
The answer should be written as a number, with no unit following it.

Q: Which solubility (mole fraction) is listed for CC(C)c1ncc[nH]1 ?
Result: 0.0287

----------
- CONDITION INFO: in isopropanol, 300.65 K
MEASURED PARAMETER: solubility (mole fraction)
Respond using a number only.

Q: May I ask what solubility (mole fraction) has been recorded for CC(C)c1ncc[nH]1 ?
Result: 0.105

----------
- CONDITION INFO: in ethyl acetate, 283.15 K
MEASURED PARAMETER: solubility (mole fraction)
Just the number, please.

Q: Query: solubility (mole fraction); subject: CC(C)c1ncc[nH]1
Result: 0.0588

----------
- CONDITION INFO: in ethyl acetate, 285.65 K
MEASURED PARAMETER: solubility (mole fraction)
Output spec: single numeric token, no unit.

Q: Which measured solubility (mole fraction) value corresponds to CC(C)c1ncc[nH]1 ?
Result: 0.0626

----------
- CONDITION INFO: in methanol, 278.15 K
MEASURED PARAMETER: solubility (mole fraction)

Q: Recorded solubility (mole fraction) for CC(C)c1ncc[nH]1 , please?
Result: 0.224
